Reference source for all entries: ChEMBL document CHEMBL5365407

# Tested on: MGC-803
# Measurement Notes: cells
# Reported Conditions: Homo sapiens, MGC-803, 72 h
# Description: Antiproliferative activity against human MGC-803 cells measured after 72 hrs by MTT assay
Observation Type: IC50 (µM)
Give the quantity in µM, number only.

The following molecules have reported results that may help.
> print(dat)
                            molecule.smiles  measured.number
1  N#Cc1c(Nc2ccccc2)nc(SCC(=O)NCCCOc2no[n+]([O-])c2S(=O)(=O)c2ccccc2)nc1-c1ccccc1             2.95
2  N#Cc1c(Nc2cccc(Cl)c2)nc(SCC(=O)N2CCN(CCOc3no[n+]([O-])c3S(=O)(=O)c3ccccc3)CC2)nc1-c1ccccc1             1.19

Note: attention shifts to another entry.
stdin: What value of IC50 has been recorded for this entry: N#Cc1c(-c2ccccc2)nc(SCC(=O)N2CCN(CCOc3no[n+]([O-])c3S(=O)(=O)c3ccccc3)CC2)nc1N1CCSCC1
stdout: 4.61
